- System: UniProtKB O15382
- Method notes: BCAT2 in vitro enzyme inhibition assay (resazurin/diaphorase-coupled fluorescence)
- Type: biochemical
- Run parameters: average where tested multiple times
# IC50 per record follows

Worked cases, answers included:
Molecule | Endpoint name | Result
CC(C)Cc1nc2cnc(-c3nc[nH]n3)cc2n1[C@@H]1CCC[C@H](NC(=O)c2ccc(C(F)(F)F)s2)C1 [Example 342] | IC50 | ≤ 100 nM
O=C(NC1CCCCC(n2c(-c3ccccn3)nc3cnc(-n4nccn4)cc32)C1)c1ncc(C(F)F)s1 (stereo not drawn) [Example 4] | IC50 | ≤ 100 nM
CO[C@H]1C[C@H](NC(=O)c2ncc(Cl)s2)C[C@H](n2c(-c3ccccc3C#N)nc3cnc(-c4nc[nH]n4)cc32)C1 (stereo in doubt) [Example 445] | IC50 | 100 to 500 nM

What does the data say about its IC50? Entry: C#Cc1cnc(C(=O)N[C@H]2CCC[C@@H](n3c(-c4ccccn4)nc4cnc(-n5nccn5)cc43)C2)s1 [Example 20] ≤ 100 nM

Form field: reported IC50 of CC(C)(C)Cc1nc2cnc(-c3ccccn3)cc2n1[C@H]1CCC[C@@H](NC(=O)c2ncc(Cl)s2)[C@@H]1O [Example 390] 100 to 500 nM

What IC50 value was documented for this molecule, CO[C@H]1C[C@@H](NC(=O)c2ncc(Cl)s2)C[C@@H](n2c(-c3ccccc3F)nc3cnc(-c4nc[nH]n4)cc32)C1 (stereo in doubt) [Example 420] ? ≤ 100 nM

###

- System: BCAT2 (Homo sapiens, UniProt O15382)
- Sequence (O15382 28-392): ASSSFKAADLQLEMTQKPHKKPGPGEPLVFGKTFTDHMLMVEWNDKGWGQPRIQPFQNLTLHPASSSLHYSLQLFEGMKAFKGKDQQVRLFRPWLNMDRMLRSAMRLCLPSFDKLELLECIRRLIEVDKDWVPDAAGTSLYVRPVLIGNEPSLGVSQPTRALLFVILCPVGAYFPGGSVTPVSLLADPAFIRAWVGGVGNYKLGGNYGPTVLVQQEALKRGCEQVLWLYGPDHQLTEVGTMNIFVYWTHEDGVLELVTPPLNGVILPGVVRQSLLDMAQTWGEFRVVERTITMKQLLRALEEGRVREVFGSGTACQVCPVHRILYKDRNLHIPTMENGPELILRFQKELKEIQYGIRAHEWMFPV
- Method notes: BCAT2 in vitro cell inhibition using engineered A549 cells (KMV cell assay, 13C6-KMV by LC-MS/MS)
- Format: cell-based
- Set-up: The result was an engineered A549 cell line that expressed endogenous BCAT2; endogenous in cells; host or cells: A549 cells with MUT and BCAT1 knocked out by CRISPR/CAS9
- Run parameters: average where tested multiple times
Endpoint name: IC50

// known answers, use as guide
Compound | System | Result
CC(C)Cc1nc2cnc(-n3nccn3)cc2n1[C@H]1C[C@H](O)C[C@@H](NC(=O)c2ccc(Cl)s2)C1 (single isomer, unassigned) | BCAT2 (Homo sapiens, UniProt O15382) | > 1000 nM
C#Cc1cnc(C(=O)N[C@H]2CCC[C@@H](n3c(-c4ncccc4F)nc4cnc(-n5nccn5)cc43)C2)s1 | BCAT2 (Homo sapiens, UniProt O15382) | ≤ 100 nM
O=C(N[C@H]1CCC[C@@H](n2c(-c3ccccc3F)nc3cnc(-n4nccn4)cc32)C1)c1ncc(C(F)F)s1 | BCAT2 (Homo sapiens, UniProt O15382) | ≤ 100 nM
Cc1nc(-c2cc3c(cn2)nc(CC(C)C)n3[C@@H]2CCC[C@H](NC(=O)c3ncc(Cl)s3)C2)n[nH]1 | BCAT2 (Homo sapiens, UniProt O15382) | ≤ 100 nM
CC(C)Cc1nc2cnc(-c3cccc(C#N)n3)cc2n1[C@@H]1CCC[C@H](NC(=O)c2ncc(Cl)s2)[C@H]1O | BCAT2 (Homo sapiens, UniProt O15382) | > 1000 nM
O=C(NC1CCCCC(n2c(-c3ccccn3)nc3cnc(-n4nccn4)cc32)C1)c1ncc(C(F)F)s1 (stereo not shown) | BCAT2 (Homo sapiens, UniProt O15382) | 500 to 1000 nM

Consider the record given below.
Suppose we examine the compound O=C(N[C@H]1CCC[C@@H](n2c(-c3ccccc3F)nc3cnc(N4CCCC4CO)cc32)C1)c1ncc(Cl)s1 (stereo partly shown) ; what IC50 value has been reported? ≤ 100 nM

Value source: patent US20260159512A1
